Provenance of the data: PubChem BioAssay

# System: Plasmodium falciparum Sir2 (PF13_0152, Sir2A)
# method: pfSir2 binders on small-molecule microarrays, primary screen, biochemical, small-molecule microarray, 635 nm fluorescence (AID 1098);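 note: score merges spot fluorescence intensity with its signal-to-noise ratio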
# conditionInfo: small-molecule microarray binding, fluorescence 635 nm; higher = more signal
For each entry below, report its composite z-score value.
Could you respond with only the numeric value?

Record `CC(=O)OC[C@H]1O[C@H](C#Cc2ccccc2)C=C[C@@H]1OC(C)=O` . Reported composite z-score: 1.27

Record CCOC(=O)[C@H](Cc1ccccc1)NC(=O)CCC1CC(OC(=O)NCc2cccc3ccccc23)CC2(CCCC(COC(=O)NCc3cccc(C(F)(F)F)c3)O2)O1 (some centres not stated) . Reported composite z-score: 0.532

Record CCOC(=O)[C@H](Cc1ccccc1)NC(=O)CCC1CC(OC(=O)NCCc2ccc(F)cc2)CC2(CCCC(COC(=O)NCC3CCCCC3)O2)O1 (some centres not stated) . Reported composite z-score: 0.711

Record `O=C1C2=CC[C@H]3C(=O)N(c4cccc(Oc5ccccc5)c4)C(=O)[C@H]3[C@H]2[C@H](O)[C@@H]2O[C@H]12` . Reported composite z-score: 0.237

Record `C=CC[C@@H]1C=C[C@H](ON=C2[C@H]3CCn4c(=O)n(-c5ccccc5)c(=O)n4[C@H]3[C@H](O)[C@@H]3O[C@H]23)[C@@H](CO)O1` . Reported composite z-score: 0.482

Record CC(=O)O[C@H]1C2=CO[C@H](C)[C@H]3[C@H]4C5=C([C@H](O)[C@H]6O[C@H]6C5=O)[C@H](OC4C)[C@@]23C(=O)[C@@H]2O[C@@H]21 (some centres not stated) . Reported composite z-score: 1.74

Record COC(=O)CC=C[C@@H](C)[C@@H](C=NOC(C)CN1CCCc2nc(C)c(C)cc21)OC (some centres not stated) . Reported composite z-score: 0.465

----------
# method: Plasmodium falciparum growth inhibition, primary screen, strain 3D7, DAPI fluorescence, 100 nL (AID 1184);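 note: parasites grown inside human red blood cells in medium with human serum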
# conditionInfo: P. falciparum 3D7 growth, 3 d, higher = more signal
Classify as follows. Reported z-score greater than or equal to 0.2: yes (1). Reported z-score below: no (0).

*Q* Please indicate if the recorded z-score for `COC(=O)CC=C[C@@H](C)[C@@H](C=NOC[C@H]1O[C@H](c2ccccc2)C=C[C@@H]1Oc1ccc(OC)cc1)NS(=O)(=O)c1ccc(C)cc1` meets or exceeds 0.2.
*A* no (0)

*Q* Please indicate if the recorded z-score for `CC(C)(C)N1C(=O)[C@H]2[C@H]3[C@H](O)[C@H](O)CC(=O)[C@H]3CC[C@H]2C1=O` meets or exceeds 0.2.
*A* no (0)

*Q* Please indicate if the recorded z-score for `CC(CCN1CCCCc2nc(C)c(C)cc21)=NO[C@@H](C)c1cn([C@H](CO)Cc2ccccc2)nn1` meets or exceeds 0.2.
*A* no (0)

*Q* Please indicate if the recorded z-score for `C[C@H](ON=C1[C@H]2CCn3c(=O)n(-c4ccccc4)c(=O)n3[C@H]2[C@H](O)[C@@H]2O[C@H]12)c1cn([C@H](CO)Cc2ccccc2)nn1` meets or exceeds 0.2.
*A* no (0)

*Q* Please indicate if the recorded z-score for `CCOC(=O)NN=C1C[C@@H](O)[C@@H](O)[C@@H]2[C@@H]3C(=O)N([C@@H](C)c4ccccc4)C(=O)[C@@H]3CC[C@@H]12` meets or exceeds 0.2.
*A* no (0)

*Q* Please indicate if the recorded z-score for `CC(C)=CCCC(C)=CCON=C1C[C@@H](O)[C@@H](O)[C@@H]2[C@@H]3C(=O)N(Cc4ccccc4)C(=O)[C@@H]3CC[C@H]12` meets or exceeds 0.2.
*A* no (0)

*Q* Please indicate if the recorded z-score for `C[C@H]1COC(=O)[C@@H]2CCCN2C(=O)[C@@H](C)COC(=O)[C@H](Cc2ccccc2)NC1=O` meets or exceeds 0.2.
*A* no (0)

*Q* Please indicate if the recorded z-score for `O=C1[C@H]2[C@H]3[C@H](O)[C@H](O)CC(=NOCc4ccccc4)[C@@H]3CC[C@H]2C(=O)N1Cc1ccc2c(c1)OCO2` meets or exceeds 0.2.
*A* no (0)

*Q* Please indicate if the recorded z-score for `O=C(NN=C1C[C@@H](O)[C@@H](O)[C@@H]2[C@@H]3C(=O)N(C[C@@H]4CCCO4)C(=O)[C@@H]3CC[C@@H]12)OCc1ccccc1` meets or exceeds 0.2.
*A* yes (1)

*Q* Please indicate if the recorded z-score for `COC(=O)CC=C[C@@H](C)[C@@H](C=NOCC[C@@H]1C=C[C@H](OC(C)=O)[C@@H](COC(C)=O)O1)OC` meets or exceeds 0.2.
*A* yes (1)

*Q* Please indicate if the recorded z-score for `CCOC(=O)NN=C1C[C@@H](O)[C@@H](O)[C@@H]2[C@@H]3C(=O)N(c4cccc(Oc5ccccc5)c4)C(=O)[C@@H]3CC[C@H]12` meets or exceeds 0.2.
*A* yes (1)

*Q* Please indicate if the recorded z-score for `COc1ccc(C#C[C@@H]2C=C[C@H](OC(C)=O)[C@@H](COC(C)=O)O2)cc1` meets or exceeds 0.2.
*A* yes (1)

*Q* Please indicate if the recorded z-score for `COC(=O)CC=C[C@@H](C)[C@H](OCc1cccc(-c2ccccc2)c1)C1CCCCC1` meets or exceeds 0.2.
*A* no (0)

----------
# Test system: wheat germ agglutinin (Triticum aestivum), Alexa647-labelled
# method: wheat germ agglutinin binders on compound microarrays, profiling panel, artefact control for SMM control-protein annotation, biochemical, small-molecule microarray, 635/667 nm fluorescence (AID 1140);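 note: score merges 667 nm feature emission with signal to noise over triplicate slides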
# conditionInfo: WGA-A647 binding, 635 nm fluorescence, higher = more signal
quantityKind: composite z-score
Could you respond with only the numeric value?

Record `COC(=O)CC=C[C@@H](C)[C@@H](C=NO[C@@H]1O[C@H](COC(C)=O)[C@@H](OC(C)=O)[C@H](OC(C)=O)[C@H]1OC(C)=O)OC` . Reported composite z-score: -0.421

Record `O=C1[C@H]2[C@H]3[C@H](O)[C@H](O)CC(=NOCc4ccccc4)[C@@H]3CC[C@H]2C(=O)N1Cc1ccc2c(c1)OCO2` . Reported composite z-score: 0.261

Record `COc1ccc(O[C@H]2C=C[C@@H](c3ccccc3)O[C@@H]2CON=C2[C@H]3CCn4c(=O)n(-c5ccccc5)c(=O)n4[C@H]3[C@H](O)[C@@H]3O[C@H]23)cc1` . Reported composite z-score: 0.883

Record CCOC(=O)[C@H](CC(C)C)NC(=O)CCC1CC(OC(=O)NCc2cccc3ccccc23)CC2(CCCC(COC(=O)NCCCN3CCCC3=O)O2)O1 (some centres undefined) . Reported composite z-score: 0.662

----------
# targetOrTestSystem: Torsin-1A (Homo sapiens) (UniProt O14656)
# Sequence (O14656 whole entry, looked up): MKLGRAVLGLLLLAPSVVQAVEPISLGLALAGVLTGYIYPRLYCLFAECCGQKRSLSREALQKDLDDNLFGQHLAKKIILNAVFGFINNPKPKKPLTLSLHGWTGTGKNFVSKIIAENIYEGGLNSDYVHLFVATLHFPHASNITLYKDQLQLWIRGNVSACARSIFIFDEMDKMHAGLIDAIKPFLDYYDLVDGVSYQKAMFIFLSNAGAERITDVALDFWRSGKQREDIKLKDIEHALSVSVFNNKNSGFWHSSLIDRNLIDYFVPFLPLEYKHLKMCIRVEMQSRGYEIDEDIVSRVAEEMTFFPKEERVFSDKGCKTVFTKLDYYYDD
# method: torsin A binders from cell lysate, primary screen, small-molecule microarray, wild-type, 635/667 nm (AID 1149)
# conditionInfo: COS7 hTOR1A-WT lysate, 635 nm fluorescence, higher = more signal
Classify as follows. Reported composite z-score greater than or equal to 0.2: yes (1). Reported composite z-score below: no (0).

*Q* Please indicate if the recorded composite z-score for `C[C@@H](c1ccccc1)N1C(=O)[C@H]2[C@H]3[C@H](O)[C@H](O)CC(=NOCc4ccccc4)[C@H]3CC[C@H]2C1=O` meets or exceeds 0.2.
*A* no (0)

*Q* Please indicate if the recorded composite z-score for `CCN1C(=O)[C@H]2[C@H]3[C@H](O)[C@H](O)CC(=NOC[C@H]4O[C@H](c5ccccc5)C=C[C@@H]4Oc4ccc(OC)cc4)[C@@H]3CC[C@H]2C1=O` meets or exceeds 0.2.
*A* yes (1)

*Q* Please indicate if the recorded composite z-score for CCOC(=O)[C@H](CC(C)C)NC(=O)CCC1CC(OC(=O)NCc2cccc3ccccc23)CC2(CCCC(COC(=O)NCCc3ccc(Cl)cc3)O2)O1 (stereo not given in full) meets or exceeds 0.2.
*A* yes (1)

*Q* Please indicate if the recorded composite z-score for `CCOC(=O)NN=C1C[C@@H](O)[C@@H](O)[C@@H]2[C@@H]3C(=O)N(Cc4ccc5c(c4)OCO5)C(=O)[C@@H]3CC[C@H]12` meets or exceeds 0.2.
*A* no (0)

----------
For each entry below, report its composite z-score value.
# method: small-molecule binders of probe aNOTCH3, primary screen, biochemical, small-molecule microarray, 635/667 nm fluorescence (AID 1120);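 note: probe is a biotin-tagged antibody raised against NOTCH3 rather than NOTCH3 protein; score merges spot fluorescence near 667 nm with spot signal to noise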
# conditionInfo: higher = more signal
Could you respond with only the numeric value?

Record `CC(C)CON=C1[C@H]2CCn3c(=O)n(Cc4cc5c(cc4Cl)OCO5)c(=O)n3[C@H]2[C@H](O)[C@@H]2O[C@H]12` . Reported composite z-score: -0.0328

Record Cc1cc2c(nc1C)CCCCN2CC(C)ON=C[C@@H](C)[C@H](OCc1ccccc1)C(C)C (some centres not stated) . Reported composite z-score: -0.545

Record `CCCNC(=O)OC[C@H]1O[C@H](c2ccccc2)C=C[C@@H]1Oc1ccc(OC)cc1` . Reported composite z-score: -0.15

Record `CO[C@H]1COC(=O)[C@@H]2CCCN2C(=O)CC=C[C@@H](C)[C@H](OC)COC(=O)[C@@H](OCc2ccccc2)C=C[C@@H]1C` . Reported composite z-score: 0.114

Record `C#CCCCON=C1C[C@@H](O)[C@@H](O)[C@@H]2[C@@H]3C(=O)N(Cc4ccccc4)C(=O)[C@@H]3CC[C@@H]12` . Reported composite z-score: -0.03

Record `CO[C@H]1COC(=O)CC=C[C@H](C)[C@@H](OC)COC(=O)[C@@H](C)NC(=O)CC=C[C@@H]1C` . Reported composite z-score: -0.173

Record `CCN1C(=O)[C@H]2[C@H]3[C@H](O)[C@H](O)CC(=O)[C@H]3CC[C@H]2C1=O` . Reported composite z-score: -0.0921
